List of initial Tl+ fluorescence quench rate values.
- Tested on: gramicidin D channels in DC22:1PC lipid vesicles (bilayer-modifying potency)
- test-protocol: initial Tl+ fluorescence quench rate relative to no-drug control (NormRate, gramicidin monomer-dimer shift) (ratio (fold of control)); higher = stronger bilayer-modifying effect (equilibrium shifted toward conducting dimers), active = 1.5 or more
- assay-setup: 10 µM; lipid concentration 50 µM; temperature: 25 °C
Enter a number only.

Below: 6 molecules and their reported initial Tl+ fluorescence quench rate.
COc1cncc(-c2cncc(N3CCN(c4ccncc4)CC3)n2)c1    1.11
FC(F)(F)c1nnc2ccc(Cl)nn12    1.02
Nc1ncnc2[nH]nc(Cc3cccc4ccccc34)c12    1.15
c1ccc(-c2nc(NC3CCCCC3)cc(C3CC3)n2)nc1    1.76
[H]/N=C(/N)Nc1ccc(-c2ccc(-c3ccc(N/C(N)=N/[H])cc3Cl)o2)c(Cl)c1    1.53
CNc1cc(C)nc([C@@H]2CN(C(=O)c3n[nH]c4ccccc34)CCO2)c1    1.11

Test item COc1cc(Br)cc2cc(C(=O)Nc3cccc(C(F)(F)F)c3)c(=O)oc12 ; gramicidin D channels in DC22:1PC lipid vesicles (bilayer-modifying potency); reported initial Tl+ fluorescence quench rate was 1.05

Test item O=C(N[C@H](Cc1ccccc1)C(=O)Nc1ccccc1N1CCOCC1)c1cccs1 ; gramicidin D channels in DC22:1PC lipid vesicles (bilayer-modifying potency); reported initial Tl+ fluorescence quench rate was 1.21

Test item CC1(C)Cc2c(c(N3CCOCC3)nc3snc(Br)c23)CO1 ; gramicidin D channels in DC22:1PC lipid vesicles (bilayer-modifying potency); reported initial Tl+ fluorescence quench rate was 1.26

Test item Cc1ccc2nc(Cl)c(CNCc3cccs3)cc2c1 ; gramicidin D channels in DC22:1PC lipid vesicles (bilayer-modifying potency); reported initial Tl+ fluorescence quench rate was 1.03

Test item COc1ccc(Oc2ccc([C@@H](C)N(C)c3ncc4c(N)nc(N)nc4n3)cc2)cc1 ; gramicidin D channels in DC22:1PC lipid vesicles (bilayer-modifying potency); reported initial Tl+ fluorescence quench rate was 3.36

Test item CCOc1ccc(-c2nc(NC(=O)CS(=O)(=O)c3ccccc3)sc2C)cc1 ; gramicidin D channels in DC22:1PC lipid vesicles (bilayer-modifying potency); reported initial Tl+ fluorescence quench rate was 3.58

Test item CC(C)c1ncc(-c2ccncc2)c([C@H]2CC[C@H](CNC(=O)c3cccnc3)CC2)n1 ; gramicidin D channels in DC22:1PC lipid vesicles (bilayer-modifying potency); reported initial Tl+ fluorescence quench rate was 1.02

Test item Cc1cc(C)nc(-n2nc(C)cc2Nc2ccccc2)n1 ; gramicidin D channels in DC22:1PC lipid vesicles (bilayer-modifying potency); reported initial Tl+ fluorescence quench rate was 1.32

Test item COc1ccc(S(=O)(=O)Nc2ccc(CN3CCN(C(=O)c4cccc(C#N)c4)CC3)cc2)cc1 ; gramicidin D channels in DC22:1PC lipid vesicles (bilayer-modifying potency); reported initial Tl+ fluorescence quench rate was 1.41

Test item COC(=O)Nc1nc2cc(C(=O)c3ccccc3)ccc2[nH]1 ; gramicidin D channels in DC22:1PC lipid vesicles (bilayer-modifying potency); reported initial Tl+ fluorescence quench rate was 1.04

Test item Clc1ccc(CN2CCN(C3=NCCN3)CC2)cc1Cl ; gramicidin D channels in DC22:1PC lipid vesicles (bilayer-modifying potency); reported initial Tl+ fluorescence quench rate was 1.2

Test item c1cc(C2=NCCN2)cc(-c2cc(-c3ccc(C4=NCCN4)cc3)no2)c1 ; gramicidin D channels in DC22:1PC lipid vesicles (bilayer-modifying potency); reported initial Tl+ fluorescence quench rate was 1.17

Test item Cc1cc(C)n2nc(C(=O)Nc3cc(C(F)(F)F)ccc3N3CCOCC3)nc2n1 ; gramicidin D channels in DC22:1PC lipid vesicles (bilayer-modifying potency); reported initial Tl+ fluorescence quench rate was 1.17

Test item O=C(c1[nH]nc2c1CCCC2)N1CCN(Cc2ccc3c(c2)OCO3)CC1 ; gramicidin D channels in DC22:1PC lipid vesicles (bilayer-modifying potency); reported initial Tl+ fluorescence quench rate was 1.03

Test item O=C(C1CCN(c2cc(-n3cccc3)ncn2)CC1)N1CCc2ccccc2C1 ; gramicidin D channels in DC22:1PC lipid vesicles (bilayer-modifying potency); reported initial Tl+ fluorescence quench rate was 1.45
